assay: Drug uptake in C57BL/6J Jcl mouse assessed as brain concentration at 3 mg/kg, po measured after 60 mins by LC-MS/MS analysis; assay type: ADME, organism-based; details: read-out: Drug uptake
TEST_READOUT: concentration at 1 h (ng/g)
Write the answer as a number in ng/g, unit excluded.

Problem: Bench note: what concentration at 1 h did Cc1ccc(COC2CN(C(=O)[C@H]3C[C@]4(COC(=O)N4)C3)C2)cc1Cl show?
Result: 322

* * *

assay: Drug uptake in C57BL/6J Jcl mouse assessed as plasma concentration at 0.3 mg/kg, po measured after 60 mins by LC-MS/MS analysis; format: ADME, organism-based; settings: read-out: Drug uptake
TEST_READOUT: concentration at 1 h (ng/mL)
Return type: number; implicit unit ng/mL.

Problem: Return reported concentration at 1 h; argument: Cc1ccc(COC2CN(C(=O)[C@H]3C[C@]4(COC(=O)N4)C3)C2)cc1Cl
Result: 62

Values from ChEMBL document CHEMBL4808222
